Read-out: solute carrier (SLCO1B1), SLCO1B1 (gene 10599)
PROTOCOL: LTEA_HepaRG_SLCO1B1: Life Technologies and Expression Analysis (LTEA) Assay for solute carrier (SLCO1B1) using HepaRG (AID 2283530)
SETUP CONDITIONS: mRNA level, 48 h; actives raise or lower the signal
Calls of active or inactive are those of the source. The calls were made as follows: active = hit-call score of the fitted dose curve at least 0.9, where 1 is the maximum; inactive = score below 0.9.
Possible outcomes: active, inactive

CNC(=O)ON=CC(C)(C)SC	inactive
N#Cc1cc(Br)c(O)c(Br)c1	active
COc1cnc(OC)n2nc(NS(=O)(=O)c3c(OCC(F)F)cccc3C(F)(F)F)nc12	inactive
Oc1ccccc1-c1ccccc1	inactive
O=C(Nc1ccccc1)Nc1ccnc(Cl)c1	active
CCCN(CCC)c1c([N+](=O)[O-])cc(S(N)(=O)=O)cc1[N+](=O)[O-]	inactive
OC(c1ccc(Cl)cc1)(c1cncnc1)c1ccccc1Cl (centres undefined)	active
CC(C)Oc1cc(-n2nc(C(C)(C)C)oc2=O)c(Cl)cc1Cl	inactive
Fc1ccc(Oc2ccnc3cc(Cl)cc(Cl)c23)cc1	inactive
COC(=O)c1ccccc1C(=O)OC	inactive
CCCC1COC(Cn2cncn2)(c2ccc(Cl)cc2Cl)O1 (centres undefined)	active
COC(=O)C(C)Oc1ccc(Oc2ccc(Cl)cc2Cl)cc1 (centres undefined)	inactive
CCOC(=O)C(Cl)Cc1cc(-n2nc(C)n(C(F)F)c2=O)c(F)cc1Cl (centres undefined)	inactive
CON(C)C(=O)Nc1ccc(Cl)c(Cl)c1	inactive
